Reported IC50, VEGFR2 kinase (Homo sapiens, UniProt P35968).
Answers are plain numbers, in nM.

INSERT INTO measurements (molecule, recorded_result) VALUES
  ('NC(=O)/C(=C1\Nc2ccc(NC(=O)CCCN3CCOCC3)cc2N1)c1nccc(C(F)(F)F)n1 [Compound 85A]', 20);

Okay, here is my list. What is IC50 for each of these?
1. NC(=O)/C(=C1\Nc2ccc(C(=O)O)cc2S1)c1nccc(C(F)(F)F)n1 [Compound 27A]
2. CN1CCN(c2ccc3c(c2)N/C(=C(/C(N)=O)c2nccc(C(F)(F)F)n2)N3)CC1 [Compound 119A]

Outgoing:
1: 10; 2: 6
